experimental_target: T1, human factor IX (human, UniProt P00740 47-461, 12 glutamic acid residues of the GLA domain are post-translationally γ-carboxylated)
T1 construct: Zymogen used as analyte in SPR, reconstituted at 1 mg/ml; also called FIX; Human FIX (MW ~55 KDa)
T1 sequence (P00740 47-461 limits assumed): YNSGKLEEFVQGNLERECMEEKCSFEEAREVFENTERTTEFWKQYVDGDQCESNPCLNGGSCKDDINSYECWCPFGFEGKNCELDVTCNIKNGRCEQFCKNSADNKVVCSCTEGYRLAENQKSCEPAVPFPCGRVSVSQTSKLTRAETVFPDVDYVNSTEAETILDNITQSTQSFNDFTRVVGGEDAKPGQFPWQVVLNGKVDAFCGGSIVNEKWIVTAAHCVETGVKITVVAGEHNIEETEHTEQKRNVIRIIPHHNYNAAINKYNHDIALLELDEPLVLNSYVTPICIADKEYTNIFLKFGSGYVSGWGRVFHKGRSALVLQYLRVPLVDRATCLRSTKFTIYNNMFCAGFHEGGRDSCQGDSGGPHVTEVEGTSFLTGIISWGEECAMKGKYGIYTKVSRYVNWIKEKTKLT
procedure_summary: SPR as in Example 10, human FIX as analyte
endpoint_name: Kd (nM)

1) NINA-1091.0128 (antibody, V domains shown) VH: EVQLVESGGGFVQPGGSLRLSCAVSGFTFNSYWMSWVRQAPGKGLEWVANINQDGSRKFYVASVKGRFTMSRDNAKKSVYVQMNSLRAEDTAVYYCAREGYSISSYYGMDVWGQGTTVTVSS VL: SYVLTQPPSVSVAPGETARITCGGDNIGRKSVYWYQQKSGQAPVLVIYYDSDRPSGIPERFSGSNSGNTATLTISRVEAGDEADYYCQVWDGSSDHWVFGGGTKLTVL    218

Values were extracted from patent US20220064327A1.
